Measured inhibition at 10 µM, listed per entry for reference.
# targetOrSystem: A₂ receptor (Rattus norvegicus, UniProt P30543)
# Construct: A precipitate was prepared from rat corpus striatum; from tissue; host or cells: rat corpus striatum membrane preparation
# Sequence (P30543 whole entry): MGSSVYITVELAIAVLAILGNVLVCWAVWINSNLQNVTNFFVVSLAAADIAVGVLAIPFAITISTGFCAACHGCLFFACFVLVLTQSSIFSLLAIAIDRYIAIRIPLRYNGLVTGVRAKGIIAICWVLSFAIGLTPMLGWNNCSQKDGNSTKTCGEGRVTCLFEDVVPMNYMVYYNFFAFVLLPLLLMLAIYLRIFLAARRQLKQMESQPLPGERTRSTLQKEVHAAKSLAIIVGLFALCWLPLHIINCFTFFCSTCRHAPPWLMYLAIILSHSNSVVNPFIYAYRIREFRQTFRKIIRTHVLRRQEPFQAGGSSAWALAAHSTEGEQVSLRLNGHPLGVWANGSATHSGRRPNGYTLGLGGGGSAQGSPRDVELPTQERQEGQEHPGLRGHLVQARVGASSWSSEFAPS
# measurementNotes: Adenosine A2 receptor binding (3H-NECA binding)
# conditionDescription: read-out: A₂ Receptor Inhibition (%)
observedProperty: inhibition at 10 µM

compound="CCCn1c(=O)c2[nH]c([C@H]3CC[C@H]4CCC[C@H]43)nc2n(CCC)c1=O (relative stereo)" result=70%
compound="CCCn1c(=O)c2[nH]c([C@H]3C[C@H]4CC[C@@H]3C4)nc2n(CCC)c1=O (relative stereo)" result=83%
compound="Nc1nc2ccc(Cl)cc2c2nc(-c3ccco3)nn12 [CGS 15943, reference compound]" result=99%
compound=CCCCn1c(=O)c2[nH]c(C34CC5CC(CC3C5)C4)nc2n(CCCC)c1=O result=72%
compound="CCCn1c(=O)c2[nH]c([C@H]3C[C@@H]4C=C[C@@H]3C4)nc2n(CCC)c1=O (relative stereo)" result=88%
compound="CCCn1c(=O)c2[nH]c([C@@H]3CC[C@H]4CCC[C@H]43)nc2n(CCC)c1=O (relative stereo)" result=91%
compound="CCCn1c(=O)c2[nH]c(-c3ccc(S(=O)(=O)N(C)CCN(C)C)cc3)nc2n(CCC)c1=O [PD 115199, reference compound]" result=94%
